- study-target: T1, ALKFL (full-length human ALK ectodomain, amino acids 19-1025) (human, UniProt Q9UM73 19-1025)
- T1 construct: Fc-His6 tag removed by caspase 3; also called full-length ALK ectodomain
- T1 sequence (Q9UM73 19-1025): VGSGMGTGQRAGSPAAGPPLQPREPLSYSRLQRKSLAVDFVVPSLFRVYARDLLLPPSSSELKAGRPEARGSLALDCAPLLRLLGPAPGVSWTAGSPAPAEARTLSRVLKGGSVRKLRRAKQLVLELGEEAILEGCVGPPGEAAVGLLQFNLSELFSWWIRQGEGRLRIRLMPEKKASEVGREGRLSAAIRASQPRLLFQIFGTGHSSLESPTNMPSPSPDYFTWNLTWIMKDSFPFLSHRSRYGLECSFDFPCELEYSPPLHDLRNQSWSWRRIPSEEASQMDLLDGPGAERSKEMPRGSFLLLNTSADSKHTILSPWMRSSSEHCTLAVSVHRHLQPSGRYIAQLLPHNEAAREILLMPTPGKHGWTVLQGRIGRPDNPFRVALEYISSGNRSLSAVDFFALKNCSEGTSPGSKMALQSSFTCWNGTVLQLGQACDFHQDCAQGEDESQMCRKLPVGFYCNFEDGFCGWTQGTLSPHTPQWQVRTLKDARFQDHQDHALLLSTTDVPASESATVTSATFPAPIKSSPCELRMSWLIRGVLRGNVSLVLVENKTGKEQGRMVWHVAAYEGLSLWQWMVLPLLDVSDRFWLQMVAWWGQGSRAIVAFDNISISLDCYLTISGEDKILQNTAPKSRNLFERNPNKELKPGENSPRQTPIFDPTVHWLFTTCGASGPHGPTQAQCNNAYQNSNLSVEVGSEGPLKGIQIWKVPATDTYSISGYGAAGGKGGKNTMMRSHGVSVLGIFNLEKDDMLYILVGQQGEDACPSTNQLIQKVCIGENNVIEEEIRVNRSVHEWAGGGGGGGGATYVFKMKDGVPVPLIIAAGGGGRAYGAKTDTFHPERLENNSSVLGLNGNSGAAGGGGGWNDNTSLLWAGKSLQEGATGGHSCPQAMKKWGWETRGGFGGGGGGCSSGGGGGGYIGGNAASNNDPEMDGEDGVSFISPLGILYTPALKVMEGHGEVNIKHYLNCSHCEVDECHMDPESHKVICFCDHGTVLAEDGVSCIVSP
- assay-protocol: ITC at 310 K, ALKFL (8 µM) titrated with ALKAL2 (82 µM), one-site model
measurement-name: Kd (nM)
Give the value in nM but do not write nM after it.

Which Kd value belongs to ALKAL2 (truncated, residues 78-152) (ligand, human, UniProt Q6UX46 78-152, looked up, range 78-152; Tag-free in ITC, SEC-MALLS, crystals and Ba/F3 assays; also called ALKAL2^WT; WT ALKAL2) PSPEQRVEIVPRDLRMKDKFLKHLTGPLYFSPKCSKHFHRLYHNTRDCTIPAYYKRCARLLTRLAVSPVCMEDKQ ?
70
